All values here come from ChEMBL document CHEMBL3286320.

biological target: Neuromedin-K receptor (Homo sapiens, UniProt P29371); assay: Displacement of [3H]-SR142801 from human NK3 receptor expressed in recombinant CHO cells
Parameter: pKi
Keep it numeric: pKi is minus log10 of the concentration in mol/L.

Observe how each entry below is paired with its result.
In [3]: df
Out[3]:
                                smiles_data  reported_result
0  CN1C(=O)OC2(CCN(CC[C@@](C)(C(=O)N[C@H](Cc3ccccc3)C(=O)NCCN)c3ccc(Cl)c(Cl)c3)CC2)c2cc(F)ccc21             7.30
1  CN1C(=O)OC2(CCN(CCC[C@@H](C(=O)N(C)[C@@H](Cc3ccccc3)C(=O)NCCN)c3ccc(Cl)c(Cl)c3)CC2)c2cc(F)ccc21             5.40

As a next step, examine the molecule that follows.
input: pKi lookup needed for CN(C)CCNC(=O)[C@@H](Cc1ccccc1)NC(=O)[C@](C)(CCCN1CCC2(CC1)OC(=O)N(C)c1ccc(F)cc12)c1ccc(Cl)c(Cl)c1 , thanks.
output: 6.00

====

molecular target: Neuromedin-K receptor (Homo sapiens, UniProt P29371); assay: Displacement of [3H]-SR142801 from human NK3 receptor expressed in recombinant CHO cells
Parameter: Ki (µM)
A number alone suffices; assume µM.

>>> df
                                smiles_data  parameter  value_unit  reported_result
0  CN1C(=O)OC2(CCN(CC[C@](C)(C(=O)N[C@@H](Cc3ccccc3)C(=O)NCCN)c3ccc(Cl)c(Cl)c3)CC2)c2cc(F)ccc21         Ki          µM               10
1  CNCCNC(=O)[C@@H](Cc1ccccc1)NC(=O)[C@](C)(CCN1CCC2(CC1)OC(=O)N(C)c1ccc(F)cc12)c1ccc(Cl)c(Cl)c1         Ki          µM             0.02
2  CN1C(=O)OC2(CCN(CC[C@](C)(C(=O)N[C@H](Cc3ccccc3)C(=O)NCCN)c3ccc(Cl)c(Cl)c3)CC2)c2cc(F)ccc21         Ki          µM                2

As a next step, examine the compound that follows.
input: Ki lookup needed for CN1C(=O)OC2(CCN(CC[C@@](C)(C(=O)N[C@H](Cc3ccccc3)C(=O)NCCO)c3ccc(Cl)c(Cl)c3)CC2)c2cc(F)ccc21 , thanks.
output: 0.00251

====

Target: Neuromedin-K receptor (Homo sapiens, UniProt P29371)
Sequence (P29371 whole entry): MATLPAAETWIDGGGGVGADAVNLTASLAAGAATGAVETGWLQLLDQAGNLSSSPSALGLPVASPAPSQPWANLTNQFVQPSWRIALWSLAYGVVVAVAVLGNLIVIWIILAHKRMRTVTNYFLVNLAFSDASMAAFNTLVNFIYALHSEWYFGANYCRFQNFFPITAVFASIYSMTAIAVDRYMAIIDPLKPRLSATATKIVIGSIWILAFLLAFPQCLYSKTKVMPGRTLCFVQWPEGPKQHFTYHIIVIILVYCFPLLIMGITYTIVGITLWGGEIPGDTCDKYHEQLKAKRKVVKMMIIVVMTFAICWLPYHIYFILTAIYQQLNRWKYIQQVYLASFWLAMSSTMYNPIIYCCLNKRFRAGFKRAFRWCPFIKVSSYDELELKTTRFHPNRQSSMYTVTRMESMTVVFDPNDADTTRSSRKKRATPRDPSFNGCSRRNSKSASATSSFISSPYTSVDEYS
Experiment: Displacement of [3H]-SR142801 from human NK3 receptor expressed in recombinant CHO cells
Listed here are molecules together with their documented pKi.
Keep it numeric: pKi is minus log10 of the concentration in mol/L.

Observe how each entry below is paired with its result.
                                smiles_data  parameter  reported_result
0  CN1C(=O)OC2(CCN(CC[C@@](C)(C(=O)N(C)[C@H](Cc3ccccc3)C(=O)NCCCN)c3ccc(Cl)c(Cl)c3)CC2)c2cc(F)ccc21        pKi             7.60
1  CN1C(=O)OC2(CCN(CC[C@@](C)(C(=O)N[C@@H](Cc3ccccc3)C(=O)NCCN)c3ccc(Cl)c(Cl)c3)CC2)c2cc(F)ccc21        pKi             7.20

input: pKi lookup needed for CN1C(=O)OC2(CCN(CC[C@@](C)(C(=O)N[C@H](C(=O)NCCN)c3ccccc3)c3ccc(Cl)c(Cl)c3)CC2)c2cc(F)ccc21 , thanks.
output: 7.40
